Test system: HCT116 (colorectal carcinoma)
Assay: MTT cytotoxicity assay, HCT116
Assay type: cell-based, human
Details: Homo sapiens, HCT-116; 72 h, MTT; mean ± SD; read-out: IC50 HCT116
Protocol: The parent compound harmine, as well as the reference drug 5-fluorouracil, were used as positive controls. The experiments were carried out on five human cell lines purchased from American Type Culture Collection (ATCC): HepG2 (hepatocellular carcinoma; ATCC® HB-8065™), SW620 (colorectal adenocarcinoma; ATCC® CCL-227™), HCT116 (colorectal carcinoma; ATCC® CCL-247™), MCF-7 (breast adenocarcinoma; ATCC® HTB-22™), and Hek293T (embryonic kidney cells; ATCC® CRL-3216™). […]
measured.parameter: IC50 (µM)

INSERT INTO assay_data (compound, unit_annotation, reported) VALUES
  ('O=c1[nH]cc(F)c(=O)[nH]1 [Compound 5-FU, 5-fluorouracil, reference compound]', 'µM', 5.2);

* * *

System: HepG2 (hepatocellular carcinoma)
Experiment: MTT cytotoxicity assay, HepG2
Assay type: cell-based, human
Conditions: 72 h, MTT; mean ± SD; read-out: IC50 HepG2
pIC50: −log10 of the molar value.
measured.parameter: pIC50

INSERT INTO results (query_smiles, measured_parameter, limit_sign, reported) VALUES
  ('Cc1nc(CNC(=O)[c-]2cccc2)cc2c1[nH]c1ccccc12.[Fe+2].c1cc[cH-]c1', 'pIC50', '<', 4.30),
  ('O=C(NCc1nccc2c1[nH]c1ccccc12)[c-]1cccc1.[Fe+2].c1cc[cH-]c1', 'pIC50', '<', 4.30),
  ('[Fe+2].c1cc[cH-]c1.c1ccc2c(c1)[nH]c1c(Cn3cc(-[c-]4cccc4)nn3)nccc12', 'pIC50', '=', 4.36),
  ('COc1ccc2c3ccnc(C)c3n(CCNC(=O)C[c-]3cccc3)c2c1.[Fe+2].c1cc[cH-]c1', 'pIC50', '=', 4.55),
  ('COc1ccc2c3ccnc(C)c3n(CCn3cc(-[c-]4cccc4)nn3)c2c1.[Fe+2].c1cc[cH-]c1', 'pIC50', '<', 4.30),
  ('O=C(C[c-]1cccc1)NCc1nccc2c1[nH]c1ccccc12.[Fe+2].c1cc[cH-]c1', 'pIC50', '<', 4.30),
  ('Cc1nccc2c1[nH]c1cc(OCCn3cc(-[c-]4cccc4)nn3)ccc12.[Fe+2].c1cc[cH-]c1', 'pIC50', '=', 5.02),
  ('[Fe+2].c1cc[cH-]c1.c1ccc2c(c1)[nH]c1c(-c3cn(C[c-]4cccc4)nn3)nccc12', 'pIC50', '<', 4.30),
  ('COc1ccc2c3ccnc(C)c3n(CCNC(=O)[c-]3cccc3)c2c1.[Fe+2].c1cc[cH-]c1', 'pIC50', '<', 4.30),
  ('Cc1nccc2c1[nH]c1cc(OCCNC(=O)C[c-]3cccc3)ccc12.[Fe+2].c1cc[cH-]c1', 'pIC50', '=', 5.13);

* * *

Test system: HCT116 (colorectal carcinoma)
Test: MTT cytotoxicity assay, HCT116
Format: cell-based, human
Conditions: Homo sapiens, HCT-116, 72 h, read-out: IC50 HCT116
Experimental: The parent compound harmine, as well as the reference drug 5-fluorouracil, were used as positive controls. The experiments were carried out on five human cell lines purchased from American Type Culture Collection (ATCC): HepG2 (hepatocellular carcinoma; ATCC® HB-8065™), SW620 (colorectal adenocarcinoma; ATCC® CCL-227™), HCT116 (colorectal carcinoma; ATCC® CCL-247™), MCF-7 (breast adenocarcinoma; ATCC® HTB-22™), and Hek293T (embryonic kidney cells; ATCC® CRL-3216™). […]
pIC50: −log10 of the molar value.
measured.parameter: pIC50

INSERT INTO measurements (query_smiles, reported) VALUES
  ('COc1ccc2c(c1)[nH]c1c(C)nccc12', 5.40);
